system: SF-268 CNS; test: NCI tumour cell line growth inhibition, 48 h
recorded endpoint: TGI

• CCn1c(SCC(=O)NNC(=S)Nc2ccc([N+](=O)[O-])cc2)nc2ccccc2c1=O = > 100 µM

Name the recorded TGI for `Cc1ccc(N2C(=O)CS/C2=C(\C#N)c2nc3ccccc3[nH]2)cc1` . > 100 µM

Which value of TGI has been reported for `N#Cc1c(-c2ccc([N+](=O)[O-])cc2)c(C#N)c(=O)n(NS(=O)(=O)c2ccccc2)c1-c1ccccc1` in the records? > 100 µM

May I ask what TGI has been recorded for `COc1cccc(-c2nn(-c3ccccc3)cc2-c2ccnc(NCCCNC(=O)Nc3ccc(Cl)c(Cl)c3)c2)c1` ? 13.9 µM

###

tested on: HCT-15 colon; experiment: NCI tumour cell line growth inhibition, 48 h
recorded endpoint: TGI

Worked examples follow.
- CCCNC(=O)CCC(C)C1CCC2C3C(C[C@H](OC(C)=O)[C@]12C)[C@@]1(C)CCC2(C[C@H]1C[C@H]3OC(C)=O)OOC1(CC[C@]3(C)C4C[C@H](OC(C)=O)[C@]5(C)C(C(C)CCC(=O)NCCC)CCC5C4[C@H](OC(C)=O)C[C@@H]3C1)OO2 (some centres not stated): > 100 µM
- CC1CN(c2ccc(Cl)cc2)CC(C)OC(=O)O1 (configuration not stated): > 100 µM
- Cc1cc2c(cc1Cl)S(=O)(=O)OC(c1ccc([N+](=O)[O-])cc1)=N2: > 100 µM
- COc1cccc(-c2nn(-c3ccccc3)cc2-c2ccnc(NCCCNC(=O)Nc3ccc(Cl)c(Cl)c3)c2)c1: 6.66 µM
- O=C(Nc1cccc(-n2cc(-c3ccncc3)c(-c3cc(O)cc(Cl)c3)n2)c1)Nc1ccc(Cl)c(C(F)(F)F)c1: 6.01 µM

Please give the measured TGI for this compound: CCOC1=C2C(=O)OC(=O)C2C2CCCCC2=C1 (configuration not stated) > 100 µM

Query (compound): `O=CN/C=C/c1cccc(O)c1` ; field requested: TGI > 100 µM

For CCC(C)C1=C(OC(C)=O)[N+]2([O-])Oc3ccc(-c4c(OC(C)=O)c(OC(C)=O)c(-c5ccc(OC(C)=O)cc5)c(OC(C)=O)c4OC(C)=O)cc3OC2(C(C)CC)C(=O)N1OC(C)=O (configuration not stated) , what is its reported TGI? > 50 µM

###

system: SR leukemia; assay: NCI tumour cell line growth inhibition, 48 h
TGI overview

• O=c1[nH]nc(NNc2ccccc2)c2nnn(C3CCCCC3)c12 = > 100 µM
• Clc1cc2c(cc1Cl)CC(NCCN1CCCC1)CC2 (stereo not given) = 38 µM
• O=c1ccn(C2CC(O)C(CO)O2)c(=O)[nH]1 (stereo not given) = > 5000 µM
• CC(C)CC(NC(=O)OC(C)(C)C)C(=O)Nc1ccc(Nc2nc(F)nc(-c3c4ccccc4c4n3CCS4)n2)cc1 (stereo not given) = 34.7 µM
• CN[C@H](C#Cc1c(F)ccc2c1/C(=C/c1[nH]ccc1OC)C(=O)N2)CO = 1.91 µM
• Fc1ccc(C(OCCN2CCC3CCC(C2)N3C/C=C/c2ccco2)c2ccc(F)cc2)cc1 (stereo not given) = 42.7 µM
• NC(=O)c1c(NC(=O)c2ccccn2)sc2c1CCC(=O)C2 = > 100 µM
• O=C(/C=C/c1ccccc1)NNC(=O)c1c(Cl)c(Cl)c(Cl)c(Cl)c1-c1nc2ccccc2[nH]1 = > 100 µM

Requested read-out: TGI. Entry: `Cn1c(O)c(C=Nc2ccccc2[N+](=O)[O-])c(=O)n(C)c1=O` > 100 µM

Record request: TGI value, item CC(=O)OCC1OC(c2nc3ccccc3s2)=CC(OC(C)=O)C1OC(C)=O (stereo not given) > 100 µM

Look at this compound and give its reported TGI. Cc1ccc(N(C(=O)Nc2ccccc2)C2=NCC(C)S2)cc1C (stereo not given) 86 µM

Which TGI is reported for this compound? `c1ccc(CN2CCC3(CC2)SSC2(CCN(Cc4ccccc4)CC2)S3)cc1` > 100 µM

For `COc1ccc(CNC(=O)NCn2cc(-c3ccccc3)nn2)cc1` , what is its reported TGI? > 100 µM

###

Examples of molecules with documented TGI follow.
test system: TK-10 renal; test: NCI tumour cell line growth inhibition, 48 h

Worked examples follow.
• CCN(CC)/C(Sc1ccccc1)=C(\C(Cl)=C(Cl)Cl)[N+](=O)[O-] = 31.3 µM
• O=C(Nc1ccncc1)C(=O)c1cn(Cc2ccc(Cl)cc2)c2ccccc12 = > 100 µM
• COc1ccc(-n2cnc3c2NC(C)(C)N=C3C(N)=O)c(OC)c1 = > 100 µM

Which TGI value belongs to `COc1ccc2c(c1)nnn1c3ncccc3c(N=O)c21` ? 19.2 µM

# lookup: TGI of CCCCCCC(=O)O[C@H]1CC[C@H]2[C@@H]3CCC4C/C(=N/NC(=O)c5cccc6c(=O)c7ccccc7[nH]c56)C=C(C)[C@]4(C)[C@H]3CC[C@]12C (stereo partly specified) > 25 µM

Record request: TGI value, item CC(=O)O[C@H]1[C@@H]2OC(=O)[C@@](O)(CC3CCCO3)[C@@H]2CC(=O)[C@](C)(O)CC/C=C(\C)CCC[C@@H]1C (stereo partly specified) > 100 µM

So what's the measured TGI for this one? COCC(O)Cn1ccnc1[N+](=O)[O-] (stereo unspecified) > 100 µM

Item under review: OCC(O)C(Cl)CCl (stereo unspecified) . Reported TGI? > 100 µM

Which TGI reading was recorded for the molecule CC(C)CC(NC(=O)OC(C)(C)C)C(=O)Nc1ccc(Nc2nc(F)nc(-c3c4ccccc4c4n3CCS4)n2)cc1 (stereo unspecified) ? 57.5 µM

Fill blank: measured TGI of the molecule C=CCOC(=O)NC1C(OC(C)[C@@H](NC(=O)OCc2ccccc2)C(=O)OC(C)(C)C)OC(COC(C)=O)C(OC(C)=O)C1OC(C)=O (stereo partly specified) is ____. > 100 µM

Looking for the measured TGI of `CC(=O)Oc1ccc(-c2cc3ccccc3oc2=O)cc1` , can you help? > 100 µM

###

Overview of reported TGI across a group of molecules:
tested on: SF-539 CNS; assay: NCI tumour cell line growth inhibition, 48 h

Solved entries (count: 3):
- O=[N+]([O-])c1ccc2c(c1)Cc1cc(N=Cc3ccc4c(c3)OCO4)ccc1-2: > 100 µM
- O=C(NC(=O)c1cn(CCN(CCO)C(=O)NCCCCCCNC(=O)N(CCO)CCn2cc(C(=O)NC(=O)OCc3ccccc3)c(=O)[nH]c2=O)c(=O)[nH]c1=O)OCc1ccccc1: > 100 µM
- O=c1cc(-c2ccccc2F)[nH]c2ccc(N3CCCC3)cc12: 0.0134 µM

Kindly review the next molecule as well.
I'm curious: which TGI was measured for CCCNC(=O)CCC(C)C1CCC2C3C(C[C@H](OC(C)=O)[C@]12C)[C@@]1(C)CCC2(C[C@H]1C[C@H]3OC(C)=O)OOC1(CC[C@]3(C)C4C[C@H](OC(C)=O)[C@]5(C)C(C(C)CCC(=O)NCCC)CCC5C4[C@H](OC(C)=O)C[C@@H]3C1)OO2 (some centres undefined) tested on SF-539 CNS? > 100 µM

###

TGI for assorted compounds
system: A498 renal; experiment: NCI tumour cell line growth inhibition, 48 h
The response must be a number in µM with no trailing unit.

The following compounds have reported results that may help.
- O=C(Cn1c(=O)c(-c2ccccc2)nc2ccccc21)Nc1ccc(F)cc1: 97.9
- Cc1ccc(-c2nc(C#N)c(S(=O)(=O)n3nc(C)cc3N)o2)cc1: 32.9

Now for the compound whose TGI we want.
Bench note: what TGI did `c1cc2n(n1)CCN2` show? 6270

###

tested on: HS 578T breast; test: NCI tumour cell line growth inhibition, 48 h
recorded endpoint: TGI (µM)
Note: unit µM is implicit; provide only the numeric part.

Recorded results for 3 molecules are shown here.
- COc1nc(C#CC2(O)CCCCC2)nc(OC)n1: 44.8
- CCCCC[C@H]1C/C=C2/C(=O)C=C[C@@H]2C/C=C\CCCC(=O)O[C@@H](CCCCC)C/C=C2/C(=O)C=C[C@@H]2C/C=C\CCCC(=O)O1: 10.1
- Cc1cc(NCCN(C(C)C)C(C)C)nc(/N=C(\N)Nc2ccc(Cl)c(C(F)(F)F)c2)n1: 1.69

Let us examine a further case.
For the molecule shown here, `Nc1cccc(/C=C/C(=O)N2CCN(CCOC(c3ccccc3)c3ccccc3)CC2)c1` , give the reported TGI. 45.6

###

tested on: 786-0 renal; assay: NCI tumour cell line growth inhibition, 48 h
recorded endpoint: TGI

- COc1cccc2c1Cc1cc(-c3ccccc3)[n+](C)n1-2: 84.2 µM

Request - read-out TGI | tested on 786-0 renal | compound `CC1=NN(c2nc(N)nc(CSc3nc4n(c(=S)n3)CCN4)n2)C(C)(C)C1` > 100 µM

Return TGI measured with 786-0 renal given this compound: `CN1CCN(c2ncc3c(n2)sc2c(=O)n(-c4ccccc4)cnc23)CC1` > 100 µM

Form field - read-out: TGI; system: 786-0 renal; submitted item: `CCCCc1ccc(Nc2nc(SC)c3[nH]cnc3n2)cc1` > 100 µM

Short answer please: TGI, 786-0 renal, entry `N#CCCN(CCCN(CCCN(C(=O)Nc1ccccc1)c1ccccc1)C(=O)Nc1ccccc1)C(=O)Nc1ccccc1` > 100 µM

Form field - read-out: TGI; system: 786-0 renal; submitted item: CC1CC2OC(=O)C(C)C2CC2(C)C(OC3OC(CO)C(O)C(O)C3O)OCCC12 (stereo not given) > 100 µM

Form field - read-out: TGI; system: 786-0 renal; submitted item: `O=C1c2cccc(NCCN=Cc3cc([N+](=O)[O-])ccc3O)c2C(=O)c2c(NCCN=Cc3cc([N+](=O)[O-])ccc3O)cccc21` > 100 µM

Write down the reported TGI of `CC(C)(C)OC(=O)N1CCC(C(=O)O)CC1` , test system: 786-0 renal. > 100 µM

Under 786-0 renal: TGI value of COc1cc(NC(C)CCCN)c2ncccc2c1 (stereo not given) ? > 100 µM

Param readout = TGI; param system = 786-0 renal; param query = `CCOC(=O)c1cn2c(n1)sc1c(Cl)c(Cl)ccc12` ; response: value 31.2 µM
